# Test Target: Geranylgeranyl transferase type I (Homo sapiens, UniProt P49354+P53609)
# Assay Text: In vitro inhibition of the human Geranylgeranyl transferase-catalyzed incorporation of [3H]GGPP into biotinylated peptide corresponding to the C-terminal of human K-Ras.
pIC50: −log10 of the molar value.
Form field: pIC50 (one value per entry).

- Compound: "Cn1cncc1C(OCc1ccc(C#N)cc1C#Cc1ccc(C#N)cc1)c1ccc(C#N)cc1 (stereo not given)"
  Test Target: "Geranylgeranyl transferase type I (Homo sapiens, UniProt P49354+P53609)"
  Value Qualifier: "="
  pIC50: 6.91
- Compound: "Cn1cncc1C(OCc1ccc(C#N)cc1C#Cc1cccc(O)c1)c1ccc(C#N)cc1 (stereo not given)"
  Test Target: "Geranylgeranyl transferase type I (Homo sapiens, UniProt P49354+P53609)"
  Value Qualifier: "="
  pIC50: 5.89
- Compound: "Cn1cncc1C(OCc1ccc(C#N)cc1C#Cc1ccc(-c2ccccc2)cc1)c1ccc(C#N)cc1 (stereo not given)"
  Test Target: "Geranylgeranyl transferase type I (Homo sapiens, UniProt P49354+P53609)"
  Value Qualifier: "<"
  pIC50: 5.00
- Compound: "Cn1cncc1C(OCc1ccc(C#N)cc1C#Cc1ccc([N+](=O)[O-])cc1)c1ccc(C#N)cc1 (stereo not given)"
  Test Target: "Geranylgeranyl transferase type I (Homo sapiens, UniProt P49354+P53609)"
  Value Qualifier: "="
  pIC50: 6.82
- Compound: "Cn1cncc1C(OCc1ccc(C#N)cc1C#CC(C)(C)C)c1ccc(C#N)cc1 (stereo not given)"
  Test Target: "Geranylgeranyl transferase type I (Homo sapiens, UniProt P49354+P53609)"
  Value Qualifier: "="
  pIC50: 6.31

###

# Test Target: Protein farnesyl/geranylgeranyl transferase (Homo sapiens) (UniProt P49354+P49356+P53609)
# Assay Text: Selectivity ratio of IC50 Geranylgeranyl transferase to that of IC50 Farnesyltransferase
# Format: protein-complex assay

- Molecule: "Cn1cncc1C(OCc1ccc(C#N)cc1CCC(C)(C)C)c1ccc(C#N)cc1 (centres undefined)"
  Selectivity: 326
- Molecule: "Cn1cncc1C(OCc1ccc(C#N)cc1-c1ccc(C#N)cc1)c1ccc(C#N)cc1 (centres undefined)"
  Selectivity: 6900
- Molecule: "Cn1cncc1C(OCc1ccc(C#N)cc1C#Cc1ccccc1)c1ccc(C#N)cc1 (centres undefined)"
  Selectivity: 1900
- Molecule: "Cn1cncc1C(OCc1ccc(C#N)cc1C#Cc1ccccn1)c1ccc(C#N)cc1 (centres undefined)"
  Selectivity: 5520
